molecular target: Human FXR (NR1H4) (Homo sapiens (Human)); experiment: Human FXR (NR1H4) Assay (Gal4 promoter driven luciferase reporter transactivation in CHO cells); format: cell-based; conditions: FXR agonistic potency range; CHO reporter cells expressing human NR1H4, 22 hours incubation; read-out: EC50
Sequence (Q96RI1 whole entry, the tested form may be a part): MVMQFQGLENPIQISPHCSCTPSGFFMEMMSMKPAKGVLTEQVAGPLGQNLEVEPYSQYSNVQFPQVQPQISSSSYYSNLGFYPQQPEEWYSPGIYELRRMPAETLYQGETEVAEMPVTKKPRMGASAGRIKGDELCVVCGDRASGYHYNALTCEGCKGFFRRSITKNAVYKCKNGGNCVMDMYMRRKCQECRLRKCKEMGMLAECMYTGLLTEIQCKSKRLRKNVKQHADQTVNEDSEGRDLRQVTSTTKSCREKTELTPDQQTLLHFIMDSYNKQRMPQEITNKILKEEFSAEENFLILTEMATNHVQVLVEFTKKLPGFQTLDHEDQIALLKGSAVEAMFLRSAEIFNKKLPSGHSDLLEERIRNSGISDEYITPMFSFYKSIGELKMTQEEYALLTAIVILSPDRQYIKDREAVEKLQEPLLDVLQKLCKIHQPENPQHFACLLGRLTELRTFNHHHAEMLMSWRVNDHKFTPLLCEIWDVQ
pEC50: −log10 of the molar value.
Please provide measured pEC50 for the entries that follow.

Looking up CCC1C(O)C2C3CCC(C(C)CCC(=O)NS(=O)(=O)c4ccccc4N)C3(C)CCC2C2(C)CCC(O)CC12 (centres unmarked) , I found its pEC50 recorded as 6.00 to 7.00

Looking up CCC1C(O)C2C3CCC(C(C)CCC(=O)NS(=O)(=O)c4ccc(C)cc4)C3(C)CCC2C2(C)CCC(O)CC12 (centres unmarked) , I found its pEC50 recorded as > 7.00

Looking up CC[C@@H]1C2C[C@H](O)CCC2(C)[C@H]2CCC3(C)C([C@H](C)CCC(=O)NS(=O)(=O)c4ccc(OC(F)(F)F)cc4)CC[C@H]3[C@@H]2[C@@H]1O (some centres unmarked) , I found its pEC50 recorded as > 7.00

Looking up CC[C@@H]1C2C[C@H](O)CCC2(C)[C@H]2CCC3(C)C([C@H](C)CCC(=O)NS(=O)(=O)c4ccc5c(c4)OCO5)CC[C@H]3[C@@H]2[C@@H]1O (some centres unmarked) , I found its pEC50 recorded as > 7.00

Looking up CC[C@@H]1C2C[C@H](O)CCC2(C)[C@H]2CCC3(C)C([C@H](C)CCC(=O)NS(=O)(=O)c4ccc(OC)cc4)CC[C@H]3[C@@H]2[C@@H]1O (some centres unmarked) , I found its pEC50 recorded as > 7.00
